Reference source: PubChem BioAssay

method: PSAC antagonists in infected red cells, primary screen, cell-based, P. falciparum Indochina, OD700, 18 h (AID 1157)
condition_label: P. falciparum Indochina infected erythrocytes, osmotic lysis OD700, 18 h; higher = more signal, called active from +8 up or from −8 down
# key: entry, value: z-score
observation_type: z-score

- compound: "O=C(CS)NCCCCCCNC(=O)[C@H]1C[C@H]2C(=O)NCC(=O)N2[C@H]1c1cccc(OCCO)c1"
  observation_type: "z-score"
  value_observed: -1.36
- compound: "C=C(C(=O)CC[C@@H](OC(=O)c1ccccc1-c1ccccc1C(=O)O)c1cccc(OCCO)c1)C(C)C"
  observation_type: "z-score"
  value_observed: 0.233
- compound: "Cc1ccc(S(=O)(=O)N2[C@@H](c3ccccc3)C(C(=O)O)=C[C@H]2C(C)(C)C)cc1"
  observation_type: "z-score"
  value_observed: 0.61
- compound: "CN1C(=O)C2C(C1=O)C1C=C(CCCO)C2C(C2CC2)N1C (stereo not given)"
  observation_type: "z-score"
  value_observed: -1.17
- compound: "CCCCCN1CC=CC23O[C@@H]4/C=C\\CCCOC(=O)C4[C@H]2C(=O)N(CCCCCO)[C@@H]3C1=O (stereo not given in full)"
  observation_type: "z-score"
  value_observed: -1.27
- compound: "C=C(COC)C(=O)CC[C@H](OC(C)=O)c1ccccc1OCCO"
  observation_type: "z-score"
  value_observed: -1.49
- compound: "CC(C)c1ccc(NN2C(C(O)c3ccccc3)C=CC3C(=O)N(c4ccccc4)C(=O)C32)cc1 (stereo not given)"
  observation_type: "z-score"
  value_observed: 1.42
- compound: "C=C(C)C1CN([C@H](CO)c2ccccc2)C(=O)/C1=C\\c1ccccc1 (stereo not given in full)"
  observation_type: "z-score"
  value_observed: -1.8
- compound: "COCCCNC(=O)[C@@]1(Cc2ccccc2I)c2ccccc2C(=O)N(C2CCCCC2)[C@H]1c1ccc(CO)cc1"
  observation_type: "z-score"
  value_observed: 0.623
- compound: "O=C1O[C@H](c2ccccc2)[C@H](c2ccccc2)N2[C@H]1[C@@H](C(=O)O)[C@]1(C(=O)Nc3ccc(C#CC4(O)CCCCCC4)cc31)[C@H]2c1ccccc1OCCO"
  observation_type: "z-score"
  value_observed: -0.743
- compound: "[N-]=[N+]=NCc1ccccc1[C@H]1OC(c2ccc(OCCCO)cc2)=N[C@@]1(Cc1ccccc1N=[N+]=[N-])C(=O)N1CCOCC1"
  observation_type: "z-score"
  value_observed: 3.77
- compound: "CO[C@H]1O[C@H](CO)[C@@H](OC(=O)CCc2ccccc2)[C@@H]2OC(=O)[C@@H](Cc3ccc4ccccc4c3)C/C=C/C[C@H](Cc3ccc4ccccc4c3)C(=O)O[C@@H]12"
  observation_type: "z-score"
  value_observed: -1.71
- compound: "COCCOC(=O)N1C(=O)[C@@]2(c3cc(C#CC4=CCCCC4)ccc31)[C@H](C(=O)N1CCCCCCC1)[C@H]1C(=O)O[C@H](c3ccccc3)[C@H](c3ccccc3)N1[C@@H]2c1ccccc1OCCO"
  observation_type: "z-score"
  value_observed: 0.413
- compound: "COCCOC(=O)N1C(=O)[C@@]2(c3cc(C#CCNC(N)=O)ccc31)[C@H](C(=O)N1CCN(c3ncccn3)CC1)[C@H]1C(=O)O[C@H](c3ccccc3)[C@H](c3ccccc3)N1[C@@H]2c1ccc(O)cc1"
  observation_type: "z-score"
  value_observed: 0.539
- compound: "[N-]=[N+]=Nc1ccccc1C[C@@]1(C(=O)NCC(O)CO)N=C(c2ccc(OCCCO)cc2)O[C@@H]1c1ccccc1N=[N+]=[N-] (stereo not given in full)"
  observation_type: "z-score"
  value_observed: 8.12

====

assayed_system: Fibroblast growth factor 2 (Homo sapiens) (UniProt P09038)
Sequence (P09038 whole entry, looked up): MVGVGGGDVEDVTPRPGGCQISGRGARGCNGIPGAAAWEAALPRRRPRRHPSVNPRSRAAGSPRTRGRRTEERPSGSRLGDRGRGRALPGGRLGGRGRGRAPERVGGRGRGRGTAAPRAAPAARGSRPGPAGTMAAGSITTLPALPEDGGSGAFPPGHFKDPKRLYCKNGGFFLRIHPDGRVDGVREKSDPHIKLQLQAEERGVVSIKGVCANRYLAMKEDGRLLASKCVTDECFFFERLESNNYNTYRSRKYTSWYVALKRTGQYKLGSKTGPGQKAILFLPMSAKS
method: FGF2 binders on small-molecule microarrays, primary screen, biochemical, small-molecule microarray, 635/667 nm fluorescence (AID 1133)
condition_label: small-molecule microarray binding, FGF2, fluorescence 635/667; higher = more signal

- compound: "C[C@H]1C2[C@H](Cc3ccccc3)NC(=O)[C@]23C(=O)N[C@@H](Cc2ccccc2)C(=O)N2CCC[C@H]2C(=O)NC/C=C/CC/C=C/C3[C@@H]2O[C@]12C (some centres undefined)"
  composite z-score: 0.359
- compound: "COCCCNC(=O)[C@@]1(CCC(=O)OC(C)(C)C)N=C(c2ccc(OCCCO)cc2)O[C@H]1c1ccccc1"
  composite z-score: 0.295
- compound: "COc1ccc([Si](C)(C)[C@H]2[C@H](CC(=O)N3CCC[C@H]3CO)O[C@@]3(C(=O)N(C)c4ccccc43)[C@@H]2C)cc1"
  composite z-score: 0.798
- compound: "COCCOC(=O)N1C(=O)[C@@]2(c3cc(C#CCNC(N)=O)ccc31)[C@H](c1ccc(O)cc1)N1[C@H](c3ccccc3)[C@H](c3ccccc3)OC(=O)[C@H]1[C@@H]2C(=O)N1CCc2cc(OC)c(OC)cc2C1"
  composite z-score: 0.636
- compound: "C=C[C@H](OC)[C@@H](O)c1ccc(OC)c(O)c1"
  composite z-score: 0.598
- compound: "COC(=O)C(CC#Cc1ccc2c(c1)[C@]1(C(=O)N2)[C@H](C(N)=O)[C@H]2C(=O)O[C@H](c3ccccc3)[C@H](c3ccccc3)N2[C@@H]1c1ccccc1OCCO)C(=O)OC"
  composite z-score: 0.535
- compound: "CC(C)C[C@@H]1NC(=O)[C@@H]2C[C@H](C(=O)NCCCCCNC(=O)CS)[C@H](c3ccc(O)cc3)N2C1=O"
  composite z-score: 1.24
- compound: "C=C(C(=O)CC[C@@H](OC(=O)c1cccnc1)c1cccc(OCCO)c1)C(C)C"
  composite z-score: 1.33
- compound: "C=CC[C@]12N=C(c3ccc(OCCCO)cc3)O[C@H]1c1ccccc1N(CCC)C2=O"
  composite z-score: 1.35
- compound: "COc1ccc(CCNC(=O)[C@@]2(C)c3ccccc3C(=O)N(Cc3ccc(OC(F)(F)F)cc3)[C@H]2c2ccc(CO)cc2)cc1"
  composite z-score: 1.76
- compound: "CC(C)[Si](C#Cc1ccccc1)(O[C@H](c1ccccc1)c1cn(Cc2ccccc2)nn1)C(C)C"
  composite z-score: 1.3
- compound: "CO[C@H]1O[C@H](CO)[C@@H](OC(=O)Nc2cccc(F)c2)[C@H](OC(=O)c2cc3ccccc3[nH]2)[C@H]1OC(=O)c1cc2ccccc2[nH]1"
  composite z-score: -0.234
- compound: "CCOC(=O)C[C@H]1[C@H](OC(=O)c2cc3ccccc3oc2=O)[C@@H](NC(=O)Cc2ccc(OC)cc2)c2cc(OCCCO)ccc2N1C(=O)Cc1ccc(OC)cc1"
  composite z-score: 0.453
- compound: "COC(=O)C(CC#Cc1ccc2c(c1)[C@]1(C(=O)N2)[C@H](C(=O)N2CCN(c3ncccn3)CC2)[C@H]2C(=O)O[C@H](c3ccccc3)[C@H](c3ccccc3)N2[C@@H]1c1ccc(O)cc1)C(=O)OC"
  composite z-score: 1.57

====

method: adipocyte viability effects, profiling panel, cell-based, 3T3-L1 adipocytes, calcein-AM fluorescence, 48 h, basal (AID 1163); further: test concentration not given here
condition_label: 3T3-L1 adipocytes viability, higher = more signal
Rule: measured z-score below 0.5 gets Criterion met; anything equal to or greater than 0.5 gets Criterion not met.

- compound: "COc1ccc(NN2C(C(O)c3ccc(F)cc3)C=CC3C(=O)N(C4CCCCC4)C(=O)C32)cc1 (stereo unspecified)"
  discrete_label: "Criterion met"
- compound: "CO[C@H]1O[C@H](CO)[C@@H](OC(=O)Nc2cccc(F)c2)[C@H](OC(=O)Nc2ccc3c(c2)OCO3)[C@@H]1OC(=O)Nc1ccc2c(c1)OCO2"
  discrete_label: "Criterion not met"
- compound: "COc1cccc(C)c1NC(=O)O[C@H]1[C@H](OC(=O)Nc2ccccc2-c2ccccc2)[C@@H](OC(=O)Nc2ccccc2-c2ccccc2)[C@@H](OC)O[C@@H]1CO"
  discrete_label: "Criterion met"
- compound: "Cc1ccc(S[C@]2(C(=O)NCc3ccccc3)CC(=O)N(Cc3ccccc3C(F)(F)F)[C@@H]2c2ccc(CO)cc2I)cc1"
  discrete_label: "Criterion not met"
- compound: "COc1ccc(CCNC(=O)[C@@H]2c3ccccc3C(=O)N(C(C)C)[C@H]2c2ccc(CO)cc2)cc1"
  discrete_label: "Criterion not met"
- compound: "C=C(C(=O)CC[C@@H](OC(=O)c1ccccc1-c1ccccc1C(=O)O)c1cccc(OCCO)c1)C(C)C"
  discrete_label: "Criterion not met"
- compound: "CC(C)C[C@@H]1NC(=O)[C@@H]2C[C@H](C(=O)NCCCCCCNC(=O)CS)[C@H](c3ccc(O)cc3)N2C1=O"
  discrete_label: "Criterion not met"
- compound: "C=C(CCCC)/C(=C/C[C@@H](OC(C)=O)c1cccc(OCCO)c1)c1cc(C(=O)OC)ccc1OC"
  discrete_label: "Criterion met"
- compound: "NCCCCCCNC(=O)[C@@H]1C[C@@H]2C(=O)NCC(=O)N2[C@@H]1c1cccc(OCCO)c1"
  discrete_label: "Criterion met"
- compound: "C=CCN1C(=O)[C@@]2(O[C@@H](CCO)[C@H]([Si](C)(C)c3ccc(OC)cc3)[C@H]2C)c2cc(N3CCCCC3=O)ccc21"
  discrete_label: "Criterion met"
- compound: "COC(=O)C(CC#Cc1ccc2c(c1)[C@]1(C(=O)N2)[C@H](c2ccc(OCCO)cc2)N2[C@H](c3ccccc3)[C@H](c3ccccc3)OC(=O)[C@H]2[C@@H]1C(N)=O)C(=O)OC"
  discrete_label: "Criterion met"
- compound: "O=C/C=C/c1ccc(-c2ccccc2)cc1"
  discrete_label: "Criterion not met"
- compound: "O=C1C2C=CC(C(O)C(c3ccccc3)c3ccccc3)N(Nc3ccccc3F)C2C(=O)N1c1ccccc1 (stereo unspecified)"
  discrete_label: "Criterion met"
- compound: "CCOC(=O)C[C@H]1[C@H](OC(=O)c2cc3ccccc3oc2=O)[C@@H](NC(=O)c2ccc(-c3ccccc3)cc2)c2cc(OCCCO)ccc2N1C(=O)Cc1ccc(OC)cc1"
  discrete_label: "Criterion not met"
- compound: "CCOC(=O)C[C@H]1[C@H](OC(=O)c2ccccc2-c2ccccc2)[C@@H](NC(=O)CC(C)C)c2cc(OCCCO)ccc2N1C(=O)c1ccccc1"
  discrete_label: "Criterion not met"
- compound: "COCCOC(=O)N1C(=O)[C@@]2(c3cc(C#CC4=CCCCC4)ccc31)[C@H](c1ccc(O)cc1)N1[C@H](c3ccccc3)[C@H](c3ccccc3)OC(=O)[C@H]1[C@@H]2C(=O)N1CCc2cc(OC)c(OC)cc2C1"
  discrete_label: "Criterion met"
- compound: "CCCCCCc1nc(Cc2cc(OC)c(OC)c(OC)c2)c(C)c2c1[Si](C(C)C)(C(C)C)OC2"
  discrete_label: "Criterion not met"
- compound: "COC(=O)[C@@]1(Cc2ccc(F)cc2)[C@@H]2C(=CC(=O)[C@H]2CC(=O)C(=O)N2CCCC2)CN1C(=O)c1ccccc1"
  discrete_label: "Criterion not met"
- compound: "C[C@H]1C2[C@H](Cc3ccccc3)NC(=O)[C@]23C(=O)N[C@@H](Cc2ccccc2)C(=O)N2CCC[C@H]2C(=O)NC/C=C/CC/C=C/C3[C@@H]2O[C@]12C (stereo partly specified)"
  discrete_label: "Criterion not met"
- compound: "C=CCNC(=O)[C@H]1[C@@H]2C(=O)O[C@@H](c3ccccc3)[C@@H](c3ccccc3)N2[C@@H](c2ccc(OCCO)cc2)[C@]12C(=O)Nc1ccc(C#Cc3ccc(OC)cc3)cc12"
  discrete_label: "Criterion not met"
- compound: "COc1ccc(C(O)C2C=CC3C(=O)N(c4ccccc4)C(=O)C3N2Nc2ccccc2F)c2ccccc12 (stereo unspecified)"
  discrete_label: "Criterion met"
- compound: "COCCOC(=O)N1C(=O)[C@@]2(c3cc(C#CCNC(N)=O)ccc31)[C@H](c1ccc(O)cc1)N1[C@H](c3ccccc3)[C@H](c3ccccc3)OC(=O)[C@H]1[C@@H]2C(=O)N1CCc2cc(OC)c(OC)cc2C1"
  discrete_label: "Criterion met"
- compound: "C=CCNC(=O)[C@H]1[C@@H]2C(=O)O[C@@H](c3ccccc3)[C@@H](c3ccccc3)N2[C@@H](c2ccc(O)cc2)[C@]12C(=O)Nc1ccc(C#CCC(C(=O)OC)C(=O)OC)cc12"
  discrete_label: "Criterion met"
- compound: "CN1C2C=C(c3ccc(CO)cc3)C(C3C(=O)N(C(N)=O)C(=O)C32)C1C1CC1 (stereo unspecified)"
  discrete_label: "Criterion met"
- compound: "O=C1O[C@H](c2ccccc2)[C@H](c2ccccc2)N2[C@H]1[C@@H](C(=O)N1CCCCCCC1)[C@]1(C(=O)Nc3ccc(C#CCCO)cc31)[C@H]2c1ccc(O)cc1"
  discrete_label: "Criterion met"
- compound: "COc1cc2c(cc1OC)CN(C(=O)[C@@H]1[C@H]3C(=O)O[C@H](c4ccccc4)[C@H](c4ccccc4)N3[C@H](c3ccc(O)cc3)[C@@]13C(=O)Nc1ccc(C#CC4=CCCCC4)cc13)CC2"
  discrete_label: "Criterion not met"
